test system: Botrytis cinerea; experiment: Comparative: Botrytis cinerea / tomato / preventative; format: in vivo; details: rate of application 200 ppm, Botrytis cinerea on tomato, emulsifiable concentrate, 5-6 days after application
Reported Efficacy (% control) is given for each of the following compounds.

>  <Compound>
CC1(C)N=C(c2cnc3c(F)c(F)ccc3c2)c2cccc(Cl)c2S1 [Compound E.02]

>  <Quantity unit>
% control

>  <Efficacy (% control)>
95

$$$$
>  <Compound>
Cc1cccc2c1SC(C)(C)N=C2c1cnc2c(F)c(F)ccc2c1 [Compound E.01]

>  <Quantity unit>
% control

>  <Efficacy (% control)>
97

$$$$
>  <Compound>
Cc1ccc2c(c1F)SC(C)(C)N=C2c1cnc2c(F)cccc2c1 [Compound E.08]

>  <Quantity unit>
% control

>  <Efficacy (% control)>
97

$$$$
>  <Compound>
Cc1cccc2c1SC(C)(C)N=C2c1cnc2c(F)cccc2c1 [Compound E.14]

>  <Quantity unit>
% control

>  <Efficacy (% control)>
93

$$$$
>  <Compound>
CC1(C)N=C(c2cnc3c(F)cccc3c2)c2cccc(Cl)c2S1 [Compound E.12]

>  <Quantity unit>
% control

>  <Efficacy (% control)>
95

$$$$
>  <Compound>
CC1(C)N=C(c2cnc3c(F)cccc3c2)c2cccc(F)c2S1 [Comparative compound A, reference compound]

>  <Quantity unit>
% control

>  <Efficacy (% control)>
95

$$$$
